System: Aspergillus flavus
Assay: Antimicrobial activity against Aspergillus flavus assessed as diameter of growth inhibition zone at 1000 ug/ml after 72 hr by agar well plate method
Assay type: functional
Conditions: read-out: DIZ
property.measured: zone of inhibition at 1000 µg/mL (mm)
Hi! Could you send only the number? It should be in mm, unit omitted.

Any idea what zone of inhibition at 1000 µg/mL was measured for CSc1ccc(C2=NN(c3ccccc3)C(c3cn(-c4ccccc4)nc3-c3ccccc3)C2)cc1 (stereo not drawn) ?
0

Sample CSc1ccc(C2=NN(c3ccccc3)C(c3cn(-c4ccccc4)nc3-c3ccc(Cl)cc3)C2)cc1 (stereo not drawn) — what was its zone of inhibition at 1000 µg/mL?
3

# zone of inhibition at 1000 µg/mL lookup, item COc1ccc(-c2nn(-c3ccccc3)cc2C2CC(c3ccc(SC)cc3)=NN2c2ccccc2)cc1 (stereo not drawn)
0

I am curious: what zone of inhibition at 1000 µg/mL value has been reported for Clc1ccc(C2=NN(c3ccccc3)C(c3cn(-c4ccccc4)nc3-c3ccccc3)C2)c(Cl)c1 (stereo not drawn) ?
0

Quick one: zone of inhibition at 1000 µg/mL of COc1ccc(-c2nn(-c3ccccc3)cc2C2CC(c3ccc(-c4ccccc4)cc3)=NN2c2ccccc2)cc1 (stereo not drawn) ?
0

Any idea what its zone of inhibition at 1000 µg/mL is? The compound is Clc1ccc(C2=NN(c3ccccc3)C(c3cn(-c4ccccc4)nc3-c3ccc(Br)cc3)C2)c(Cl)c1 (stereo not drawn)
4

Name the recorded zone of inhibition at 1000 µg/mL for Clc1ccc(-c2nn(-c3ccccc3)cc2C2CC(c3ccc(Cl)cc3Cl)=NN2c2ccccc2)cc1 (stereo not drawn) .
4

State the recorded zone of inhibition at 1000 µg/mL for this entry: COc1ccc(-c2nn(-c3ccccc3)cc2C2CC(c3ccc(Cl)cc3Cl)=NN2c2ccccc2)cc1 (stereo not drawn)
0

###

System: Staphylococcus aureus
Test: Antimicrobial activity against Staphylococcus aureus ATCC 25923 assessed as diameter of growth inhibition zone at 1000 ug/ml after 24 hr by agar well plate method
Type: functional
Settings: ATCC 25923, 24 h, read-out: DIZ
Would you mind telling me the reported zone of inhibition at 1000 µg/mL of each entry?
I only need the number, in mm, no unit after it.

State its zone of inhibition at 1000 µg/mL on Staphylococcus aureus: Clc1ccc(C2=NN(c3ccccc3)C(c3cn(-c4ccccc4)nc3-c3ccccc3)C2)c(Cl)c1 (stereo not given)
0

Lab request: please report zone of inhibition at 1000 µg/mL under test system Staphylococcus aureus for Brc1ccc(-c2nn(-c3ccccc3)cc2C2CC(c3ccc(-c4ccccc4)cc3)=NN2c2ccccc2)cc1 (stereo not given)
6

Look up zone of inhibition at 1000 µg/mL with Staphylococcus aureus for this compound: COc1ccc(-c2nn(-c3ccccc3)cc2C2CC(c3ccc(-c4ccccc4)cc3)=NN2c2ccccc2)cc1 (stereo not given)
4

Provide the documented zone of inhibition at 1000 µg/mL with Staphylococcus aureus as the system for Clc1ccc(-c2nn(-c3ccccc3)cc2C2CC(c3ccc(Cl)cc3Cl)=NN2c2ccccc2)cc1 (stereo not given)
7

// lookup zone of inhibition at 1000 µg/mL | system=Staphylococcus aureus | key= CSc1ccc(C2=NN(c3ccccc3)C(c3cn(-c4ccccc4)nc3-c3ccc(Br)cc3)C2)cc1 (stereo not given)
9

###

For each of the compounds below, state its zone of inhibition at 500 µg/mL.
Test system: Staphylococcus aureus
Assay: Antimicrobial activity against Staphylococcus aureus ATCC 25923 assessed as diameter of growth inhibition zone at 500 ug/ml after 24 hr by agar well plate method
Format: functional
Details: ATCC 25923, 24 h, read-out: DIZ
Could you give me the number in mm? Just the number is fine.

Please give the measured zone of inhibition at 500 µg/mL for this compound: Brc1ccc(-c2nn(-c3ccccc3)cc2C2CC(c3ccc(-c4ccccc4)cc3)=NN2c2ccccc2)cc1 (stereo not given)
4

Look up zone of inhibition at 500 µg/mL: CSc1ccc(C2=NN(c3ccccc3)C(c3cn(-c4ccccc4)nc3-c3ccc(Cl)cc3)C2)cc1 (stereo not given)
5

# query: zone of inhibition at 500 µg/mL of entry COc1ccc(-c2nn(-c3ccccc3)cc2C2CC(c3ccc(-c4ccccc4)cc3)=NN2c2ccccc2)cc1 (stereo not given)
2

// lookup zone of inhibition at 500 µg/mL for CSc1ccc(C2=NN(c3ccccc3)C(c3cn(-c4ccccc4)nc3-c3ccc(Br)cc3)C2)cc1 (stereo not given)
7

Looking for the measured zone of inhibition at 500 µg/mL of COc1ccc(-c2nn(-c3ccccc3)cc2C2CC(c3ccc(SC)cc3)=NN2c2ccccc2)cc1 (stereo not given) , can you help?
3

###

Test system: Staphylococcus aureus
Assay: Antimicrobial activity against Staphylococcus aureus ATCC 25923 assessed as diameter of growth inhibition zone at 1000 ug/ml after 24 hr by agar well plate method
Type: functional
Conditions: ATCC 25923, 24 h, read-out: DIZ
Could you please report measured zone of inhibition at 1000 µg/mL for the items listed next?
Answer format: numeric, mm implied, no suffix.

Need zone of inhibition at 1000 µg/mL of CSc1ccc(C2=NN(c3ccccc3)C(c3cn(-c4ccccc4)nc3-c3ccccc3)C2)cc1 (configuration not stated) , thanks.
2

Suppose we examine the compound COc1ccc(-c2nn(-c3ccccc3)cc2C2CC(c3ccc(Cl)cc3Cl)=NN2c2ccccc2)cc1 (configuration not stated) ; what zone of inhibition at 1000 µg/mL value has been reported?
4

GET /values?readout=zone of inhibition at 1000 µg/mL&item= Clc1ccc(-c2nn(-c3ccccc3)cc2C2CC(c3ccc(-c4ccccc4)cc3)=NN2c2ccccc2)cc1 (configuration not stated)
8

Please look up its zone of inhibition at 1000 µg/mL: Clc1ccc(C2=NN(c3ccccc3)C(c3cn(-c4ccccc4)nc3-c3ccc(Br)cc3)C2)c(Cl)c1 (configuration not stated)
8

What value of measured zone of inhibition at 1000 µg/mL is listed for CN[C@@H]1[C@H](O[C@H]2[C@H](O[C@H]3[C@H](O)[C@@H](O)[C@H](N=C(N)N)[C@@H](O)[C@@H]3N=C(N)N)O[C@@H](C)[C@]2(O)C=O)O[C@@H](CO)[C@H](O)[C@H]1O ?
15

Which zone of inhibition at 1000 µg/mL value is on record for COc1ccc(-c2nn(-c3ccccc3)cc2C2CC(c3ccc(SC)cc3)=NN2c2ccccc2)cc1 (configuration not stated) ?
4

So what's the measured zone of inhibition at 1000 µg/mL for this one? CSc1ccc(C2=NN(c3ccccc3)C(c3cn(-c4ccccc4)nc3-c3ccc(Cl)cc3)C2)cc1 (configuration not stated)
8

###

Test system: Pseudomonas aeruginosa
Assay: Antimicrobial activity against Pseudomonas aeruginosa ATCC 27853 assessed as diameter of growth inhibition zone at 1000 ug/ml after 24 hr by agar well plate method
Assay type: functional
Conditions: ATCC 27853, 24 h, read-out: DIZ
property.measured: zone of inhibition at 1000 µg/mL (mm)
Give just the number in mm; leave the unit off.

I'm curious: which zone of inhibition at 1000 µg/mL was measured for Clc1ccc(-c2nn(-c3ccccc3)cc2C2CC(c3ccc(-c4ccccc4)cc3)=NN2c2ccccc2)cc1 (centres undefined) tested on Pseudomonas aeruginosa?
4

Form field: zone of inhibition at 1000 µg/mL recorded for Clc1ccc(-c2nn(-c3ccccc3)cc2C2CC(c3ccc(Cl)cc3Cl)=NN2c2ccccc2)cc1 (centres undefined) with Pseudomonas aeruginosa (enter value)
8

Param readout = zone of inhibition at 1000 µg/mL; param system = Pseudomonas aeruginosa; param query = Clc1ccc(C2=NN(c3ccccc3)C(c3cn(-c4ccccc4)nc3-c3ccccc3)C2)c(Cl)c1 (centres undefined) ; response: value
0

Provide the documented zone of inhibition at 1000 µg/mL with Pseudomonas aeruginosa as the system for Clc1ccc(C2=NN(c3ccccc3)C(c3cn(-c4ccccc4)nc3-c3ccc(Br)cc3)C2)c(Cl)c1 (centres undefined)
5

Identify the measured zone of inhibition at 1000 µg/mL of CSc1ccc(C2=NN(c3ccccc3)C(c3cn(-c4ccccc4)nc3-c3ccc(Br)cc3)C2)cc1 (centres undefined) for Pseudomonas aeruginosa.
8

Value wanted: zone of inhibition at 1000 µg/mL (Pseudomonas aeruginosa) of entry COc1ccc(-c2nn(-c3ccccc3)cc2C2CC(c3ccc(SC)cc3)=NN2c2ccccc2)cc1 (centres undefined)
4

Kindly state the measured zone of inhibition at 1000 µg/mL obtained for COc1ccc(-c2nn(-c3ccccc3)cc2C2CC(c3ccc(-c4ccccc4)cc3)=NN2c2ccccc2)cc1 (centres undefined) with Pseudomonas aeruginosa.
5

Given the entry CSc1ccc(C2=NN(c3ccccc3)C(c3cn(-c4ccccc4)nc3-c3ccc(Cl)cc3)C2)cc1 (centres undefined) , what zone of inhibition at 1000 µg/mL was observed with Pseudomonas aeruginosa?
7

State its zone of inhibition at 1000 µg/mL on Pseudomonas aeruginosa: CSc1ccc(C2=NN(c3ccccc3)C(c3cn(-c4ccccc4)nc3-c3ccccc3)C2)cc1 (centres undefined)
3
